assay: TOX21_p53_BLA_p2_viability: Viability Assessment in the Tox21 HCT-116 p53 Agonism Beta-lactamase Assay, Phase 2 (AID 2283591);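 further: compound exposure lasted 16 h at 37 °C; actives lower the ATP signal meaning cytotoxicity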
Results filed as inconclusive are left out. Activity calls are given as the source filed them. How the source made its calls: active means hit-call score of the fitted dose curve at least 0.9, where 1 is the maximum; inconclusive means response in the unintended direction; inactive means score below 0.9.
Pick from 1 = active, -1 = inactive when you respond.

Some solved cases for reference:
ClC(Cl)(Br)Br = -1
CC(=O)c1ccc2c(c1)N(CCCN1CCC(CCO)CC1)c1ccccc1S2 = -1
NCCCC[C@H](NC(=O)[C@@H]1CCCN1C(=O)[C@@H]1CSSC[C@H](N)C(=O)N[C@@H](Cc2ccc(O)cc2)C(=O)N[C@@H](Cc2ccccc2)C(=O)N[C@@H](CCC(N)=O)C(=O)N[C@@H](CC(N)=O)C(=O)N1)C(=O)NCC(N)=O = -1
C/C(=N\O)c1ccc(OCC(=O)N2CCCCC2)cc1 = -1
Cc1cc(C)cc(N)c1 = -1
Nc1c(N=Nc2ccc(-c3ccc(N=Nc4cc(S(=O)(=O)O)c5ccccc5c4N)cc3)cc2)cc(S(=O)(=O)O)c2ccccc12 = -1
C[C@@H]1CN(CCCn2c3ccccc3c3ccccc32)C[C@H](C)N1 = -1
CO/N=C(\C(=O)N[C@@H]1C(=O)N2C(C(=O)O)=C(CSC(=O)c3ccco3)CS[C@H]12)c1csc(N)n1 = -1
OCCN1CCN(CCO)CC1 = -1
CS(=O)(=O)OCCCNCCCOS(C)(=O)=O = -1

Hi, do you know how OCC(O)[C@@H](O)[C@H](O)[C@H](O)CO[C@H]1O[C@H](CO)[C@@H](O)[C@H](O)[C@H]1O (some centres not stated) came out in this test?
-1

Per the records of this test, what outcome belongs to CC1CCCO1 (configuration not stated) ?
-1

* * *

read-out: Interleukin-8 (IL8), CXCL8 (gene 3576); assay: BSK_3C_IL8: BioMAP Diversity Plus: 3C Assay for Interleukin-8 (IL8) Biomarker Activity (AID 2283020); conditions: primary human endothelial cells (HUVEC); actives raise or lower the signal
Activity calls are given as the source filed them. How the source made its calls: active means hit-call score of the fitted dose curve at least 0.9, where 1 is the maximum; inactive means score below 0.9.
Respond using exactly one of the listed classes: yes for active, no for inactive

Cc1c(C(N)=O)cc([N+](=O)[O-])cc1[N+](=O)[O-] = no

# fetch the recorded call for CC[N+](CC)(CC(=O)Nc1c(C)cccc1C)Cc1ccccc1 here
no

Which result was noted for this compound in the test: CC[N+](CC)(CC(=O)Nc1c(C)cccc1C)Cc1ccccc1 (tested in a mixture with another compound)
no

Hello, I am checking results. What call was entered for CN(C)c1ccc(C(c2ccccc2)c2ccc(N(C)C)cc2)cc1 ?
yes

Check the results log: what was the call for CC(C)CC(=O)CC(C)CC(C)C (centres undefined) ?
no

Record request — test call for CCCCCCCCCCC1CO1 (centres undefined)
yes

Lab log entry: Sc1nc2ccccc2s1 — outcome as called in the assay?
no

Short answer needed: outcome of this test for CCCCCCCCCC/C=C/C1CC(=O)OC1=O (centres undefined) ?
no

What call does the record list for Cc1cc(-n2nc3ccc(Cl)cc3n2)c(O)c(C(C)(C)C)c1 ?
no

* * *

experiment: CCTE_Shafer_MEA_acute_synchrony_index: CCTE's Neural Acute Assay for Synchrony, Shafer Lab (AID 2284027);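 further: network synchrony index of spontaneous spiking in primary rat cortical neurons on MEAs; fitted for loss of signal so actives lower synchrony relative to DMSO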
The source made the active and inactive calls. How the source made its calls: active means hit-call score of the fitted dose curve at least 0.9, where 1 is the maximum; inactive means score below 0.9.
Choose one outcome from this list and give only that: Y = active, N = inactive

Illustrative cases are given below, each with its answer.
CN(C)C(=O)C(CCN1CCC(O)(c2ccc(Cl)cc2)CC1)(c1ccccc1)c1ccccc1 = Y
CC1(C)S[C@@H]2[C@H](NC(=O)[C@H](N)c3ccccc3)C(=O)N2[C@H]1C(=O)O = Y
Cc1c(C(N)=O)cc([N+](=O)[O-])cc1[N+](=O)[O-] = N
O=[N+]([O-])c1cc(S(=O)(=O)Nc2ccccc2)ccc1Nc1ccccc1 = Y
NC(N)=Nc1nc(CSCCC(N)=NS(N)(=O)=O)cs1 = N
CC(C)C1OCCN1CCOC(=O)NCCCCCCNC(=O)OCCN1CCOC1C(C)C (stereo not given) = N
COc1ccccc1Oc1c(NS(=O)(=O)c2ccc(C(C)(C)C)cc2)nc(-c2ncccn2)nc1OCCO = N
CC1(C)S[C@@H]2[C@H](NC(=O)[C@H](N)c3ccc(O)cc3)C(=O)N2[C@H]1C(=O)O = N

Dear all, I need the recorded test outcome for CN(C)CCC(c1ccc(Cl)cc1)c1ccccn1 (stereo not given) , thank you.
Y

What is the recorded call for this compound in the test? CC[N+](CC)(CC(=O)Nc1c(C)cccc1C)Cc1ccccc1 (tested in a mixture with another compound)
N

* * *

molecular target: Cellular tumor antigen p53 (Homo sapiens) (UniProt P04637); assay: TOX21_p53_BLA_p3_ratio: Tox21 HCT-116 p53 Agonism Beta-lactamase Assay, Ratio, Phase 3 (AID 2283596)
Sequence (P04637 whole entry, looked up): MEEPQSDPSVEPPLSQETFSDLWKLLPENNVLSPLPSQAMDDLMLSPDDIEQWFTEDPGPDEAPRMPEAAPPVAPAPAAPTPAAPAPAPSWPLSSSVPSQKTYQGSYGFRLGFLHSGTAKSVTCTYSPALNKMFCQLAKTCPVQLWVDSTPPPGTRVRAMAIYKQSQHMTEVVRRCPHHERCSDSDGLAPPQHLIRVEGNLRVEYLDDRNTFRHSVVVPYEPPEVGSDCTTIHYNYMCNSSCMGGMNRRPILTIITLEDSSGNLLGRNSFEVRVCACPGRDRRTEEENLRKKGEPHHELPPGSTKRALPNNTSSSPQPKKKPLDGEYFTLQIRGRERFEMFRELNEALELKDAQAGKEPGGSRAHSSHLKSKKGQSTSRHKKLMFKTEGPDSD
Inconclusive results are not listed. Calls of active or inactive are those of the source. The calls were made as follows: active = hit-call score of the fitted dose curve at least 0.9, where 1 is the maximum; inconclusive = response in the unintended direction; inactive = score below 0.9.
Respond with a class label; see active, inactive

Lab log entry: Cn1cc(NC(=O)c2cc(NC(=O)c3cc(NC=O)cn3C)cn2C)cc1C(=O)NCCC(=N)N — outcome as called in the assay?
inactive

Outcome logged for CN1C(=O)CN2CCc3ccccc3C2c2cc(Cl)ccc21 (stereo not drawn) in this assay:
active

What call does the record list for CN1CCN(c2cc3c(nn2)Oc2ccccc2N3C)CC1 ?
inactive

* * *

test: CCTE_Shafer_MEA_dev_correlation_coefficient_mean: CCTE's Neural Network Formation Assay for Mean Correlation Coefficient, Shafer Lab (AID 2284093);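 on AC50: well mean pairwise spike train correlation integrated as AUC over recording days 5 to 12; potency fitted for loss of correlation relative to DMSO vehicle wells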
Calls of active or inactive are those of the source. The calls were made as follows: active = hit-call score of the fitted dose curve at least 0.9, where 1 is the maximum; inactive = score below 0.9.
Observable: AC50

The examples below pair each entry with its known result.
c1cc2ccc3ccc4ccc5cccc6c(c1)c2c3c4c56 = inactive
C[C@H](CS)C(=O)N1CCC[C@H]1C(=O)O = inactive
COc1ccc2cc3[n+](cc2c1OC)CCc1cc2c(cc1-3)OCO2 = 0.106 µM (active)
CC(C)(C)NCC(O)c1cc(O)cc(O)c1 (configuration not stated) = inactive
c1ccc2cc3c4ccccc4c4ccccc4c3cc2c1 = 3.22 µM (active)

Look at each compound and report its AC50.
1. CN(C)CCC(c1ccc(Cl)cc1)c1ccccn1 (configuration not stated)
2. C[C@@H]1C[C@H]2[C@@H]3CCC4=CC(=O)C=C[C@]4(C)[C@@]3(F)[C@@H](O)C[C@]2(C)[C@@]1(O)C(=O)CO

["inactive", "inactive"]

* * *

assay: ATG_M_06_TRANS: Attagene TRANS-FACTORIAL HepG2 Assay for M06 Transcription Factor (Internal Marker) (AID 2282983); settings: HepG2 Attagene TRANS M06 internal marker reporter;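 further: reporter transcript level by RT-PCR then capillary electrophoresis fluorescence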
Results filed as inconclusive are left out. Activity calls are given as the source filed them. Rule for the calls: active = hit-call score of the fitted dose curve at least 0.9, where 1 is the maximum; inconclusive = response in the unintended direction; inactive = score below 0.9.
Observable: outcome

Example compounds with recorded outcome:
COC(=O)[C@]1(C)CCC[C@@]2(C)[C@H]1CC=C1C=C(C(C)C)CC[C@@H]12 = inactive
CC/C=C\CCCCCO = inactive
CCO[Si](OCC)(OCC)c1ccccc1 = inactive
CC/C=C/CCO = inactive
CC(C)CC(=O)O = inactive

Take each entry in turn and give its outcome.
1. CCCCCCC1CCCC(=O)O1 (centres undefined)
2. O=C(Oc1ccccc1)c1ccccc1
3. O=C(C1CCCCC1)N1CC(=O)N2CCc3ccccc3C2C1 (centres undefined)

1. inactive
2. inactive
3. inactive

The compound listed as CCCC[N+]1(C)CCCC1 has a reported outcome of inactive

* * *

assay: TOX21_p53_BLA_p3_viability: Viability Assessment in the Tox21 HCT-116 p53 Agonism Beta-lactamase Assay, Phase 3 (AID 2283593);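 further: cells exposed to compound for 16 h before reading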
Inconclusive results are not listed. Active and inactive are the calls of the source. Rule for the calls: active = hit-call score of the fitted dose curve at least 0.9, where 1 is the maximum; inconclusive = response in the unintended direction; inactive = score below 0.9.
Field 'call' accepts active, inactive

# example entries with known answers
CN(C)[C@@H]1C(=O)C(C(=O)NCN2CCCC2)=C(O)[C@@]2(O)C(=O)C3=C(O)c4c(O)cccc4[C@@](C)(O)C3C[C@@H]12 (stereo partly specified) = inactive
CCCC(CCC)C(=O)OC1C[C@H]2CC[C@@H](C1)[N+]2(C)C (stereo partly specified) = inactive
CN1CCN(C2Cc3ccccc3Sc3ccc(Cl)cc32)CC1 (stereo unspecified) = active
CCN(CC)CCSC(=O)C(c1ccccc1)c1ccccc1 = inactive
CC(C)(C(=O)O)c1ccc(C(O)CCCN2CCC(C(O)(c3ccccc3)c3ccccc3)CC2)cc1 (stereo unspecified) = inactive
CCCCCCCCCCCl = inactive

I'd appreciate the recorded outcome for CC(C)=CCOC(=O)c1ccccc1 from this test.
inactive

Please indicate how the test categorized CCOC(=O)C(C)C(C)=O (stereo unspecified) .
inactive

What classification did CC(=O)Nc1ccc(C=NNC(N)=S)cc1 end up with in this test?
inactive

How was Clc1ccccn1 classified in this test?
inactive

Record lookup: outcome of this test for Cc1ccccc1CNc1ncnc2c1ncn2[C@@H]1O[C@H](CO)[C@@H](O)[C@H]1O ?
inactive

Record lookup: outcome of this test for C=C[C@]1(C)C[C@@H](OC(=O)CO)[C@]2(C)[C@H](C)CC[C@]3(CCC(=O)[C@H]32)[C@@H](C)[C@@H]1O ?
inactive
